- tested_system: EGFR[T790M/C797S/d746-750] (Homo sapiens, UniProt P00533, C797S/DEL746-750/T790M)
- Construct: purchased Carna Bio
- Sequence (P00533 with tags, fused parts or gaps DEL746-750/T790M/C797S limits assumed): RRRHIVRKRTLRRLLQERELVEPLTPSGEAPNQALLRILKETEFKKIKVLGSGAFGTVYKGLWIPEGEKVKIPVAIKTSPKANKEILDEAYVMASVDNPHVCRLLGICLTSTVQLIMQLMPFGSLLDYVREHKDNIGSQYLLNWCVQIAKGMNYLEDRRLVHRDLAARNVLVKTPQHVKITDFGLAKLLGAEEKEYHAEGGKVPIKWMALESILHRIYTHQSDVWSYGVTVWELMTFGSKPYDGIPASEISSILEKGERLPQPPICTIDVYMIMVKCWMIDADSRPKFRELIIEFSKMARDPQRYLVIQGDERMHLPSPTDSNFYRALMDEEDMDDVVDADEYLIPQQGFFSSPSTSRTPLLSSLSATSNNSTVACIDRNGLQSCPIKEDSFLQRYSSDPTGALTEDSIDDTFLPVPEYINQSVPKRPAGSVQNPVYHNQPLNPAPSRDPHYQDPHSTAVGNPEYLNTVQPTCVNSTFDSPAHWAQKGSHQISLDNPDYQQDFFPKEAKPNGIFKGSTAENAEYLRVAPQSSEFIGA
- assay_info: Inhibition of EGFR[T790M/C797S/d746-750] biochemical enzymatic activity (HTRF)
- condition: EGFR T790M-C797S-Del19, 1 mM ATP, 1 h, room temperature, read-out: IC50 (nM) @T790M - C797S - Del19
Kindly state IC50 for each of the entries shown.
Give bare numbers, in nM.

Consider the reported IC50 for these molecules:
molecule	IC50 / nM
CCn1cc2cc(c1=O)-c1cnn(C)c1OCCC[C@@H](C)Cn1c(nc3ccc(N4CCN(C)CC4)cc31)NC2=O [Example A14]	59
Cn1ncc2c1OCCN1CC3CCC(C3)(C1)n1c(nc3cc(Br)ccc31)NC(=O)c1cc-2c(=O)n(C)c1 (stereo not drawn) [Example A59]	11

Please state, for each entry, its recorded IC50.
1. CN1CCN(c2ccc3nc4n(c3c2)C(C)(C)CCCCOc2c(cnn2C)-c2cc(cn(C)c2=O)C(=O)N4)CC1 [Example A112]
2. C[C@@H]1CCCOc2ccc(F)cc2-c2cc(cn(C)c2=O)C(=O)Nc2nc3ccc(N4CCN(C)CC4)cc3n2C1 [Example A110]
3. Cn1ncc2c1OCCN1CC3CCC(C3)(C1)n1c(nc3ccc(N4CCN(C5CC5)CC4)cc31)NC(=O)c1cc-2c(=O)n(C)c1 (single isomer, unassigned) [Example A83B]
4. Cn1ncc2c1OCCN1CC3CCC(C3)(C1)n1c(nc3ccc(N4CCOCC4)cc31)NC(=O)c1cc-2c(=O)n(C)c1 (single isomer, unassigned) [Example A62B]
5. CN1CCN(C2CCN(c3ccc4nc5n(c4c3)C34CCC(CN(CCOc6c(cnn6C)-c6cc(cn(C)c6=O)C(=O)N5)C3)C4)CC2)CC1 (single isomer, unassigned) [Example A106A]
6. CN1CCOC2(C1)CN(c1ccc3nc4n(c3c1)C13CCC(CN(CCOc5c(cnn5C)-c5cc(cn(C)c5=O)C(=O)N4)C1)C3)C2 (single isomer, unassigned) [Example A86B]
7. CN(C)CCC1CN(c2ccc3nc4n(c3c2)C23CCC(CN(CCOc5c(cnn5C)-c5cc(cn(C)c5=O)C(=O)N4)C2)C3)C1 (single isomer, unassigned) [Example A95B]

1: 12; 2: 3.2; 3: 2.7; 4: 2.9; 5: 2820; 6: 8.5; 7: 2.7
